# TARGET OR TEST SYSTEM: AFF4-CCNT1 interaction (GST-CCNT1 AA 1-300 and biotin-AFF4 peptide AA 32-67) (Homo sapiens)
# Construct: Recombinant GST-CCNT1 (1-300), which was purified by Glutathione Superflow Agarose from Rosetta cells; VCPBIO (peptide synthesis) Addgene P#432; host or cells: Rosetta cells
# Sequence (O60563 1-300): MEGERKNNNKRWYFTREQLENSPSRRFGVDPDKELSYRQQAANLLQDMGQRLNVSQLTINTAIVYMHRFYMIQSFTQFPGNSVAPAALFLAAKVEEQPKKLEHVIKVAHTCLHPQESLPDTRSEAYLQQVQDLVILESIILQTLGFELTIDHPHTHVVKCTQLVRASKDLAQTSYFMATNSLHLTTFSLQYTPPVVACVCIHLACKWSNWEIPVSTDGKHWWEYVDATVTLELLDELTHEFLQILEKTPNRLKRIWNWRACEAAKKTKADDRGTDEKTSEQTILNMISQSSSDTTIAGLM
# ASSAY EXPLANATION: AlphaLISA assay of the AFF4-CCNT1 interaction (Alpha Screen)
# Format: binding
Form field: IC50 (one value per entry).
Give the number; µM is assumed, so skip it.

{"columns": ["SMILES ENTRY", "EXPERIMENTAL RESULT"],
 "data": [
  ["COc1cccc(C(=O)CC(=O)C(=O)Nc2ccc(F)cc2)c1", 20]
]}

Ask: Any idea what its IC50 is? The compound is O=C(CC(=O)c1ccc(F)cc1)C(=O)Nc1nccs1
Reply: 20.8

Ask: Any idea what its IC50 is? The compound is Cc1ccccc1NC(=O)C(=O)CC(=O)c1ccc(F)cc1
Reply: 14.8
